Reported values of melting point for individual entries

# count of solved cases: 3
compound=O=C(Nc1ccc(C(F)(F)F)cc1)NC1CCS(=O)(=O)CC1 endpoint_value="196 to 198 °C"
compound=Cc1ccc(Oc2ccc([N+](=O)[O-])cn2)cc1 endpoint_value="80 to 82 °C"
compound="CC(NC(=O)C(CS)C(C)c1ccc(O)cc1)C(=O)O (stereo unspecified)" endpoint_value="72 °C"

Let us examine a further case.
Q) Data request, read-out melting point, for CN(C[C@@H]1C[C@H]1COc1ccc(C(=O)c2ccc(Br)cc2)cc1)C1CC1 (racemic)
A) 136 to 137 °C

---

property-measured: melting point

# count of solved cases: 8
compound=CON=Cc1ccccc1OCc1ccccc1C(=NOC)C(=O)OC property_measured="melting point" endpoint_value="73 to 76 °C"
compound="CN1C(=O)N(CC(COc2ccc(-c3ccc(OC(F)(F)F)cc3)cc2)N(O)C=O)C(=O)C1(C)C (stereo not given)" property_measured="melting point" endpoint_value="114 to 118 °C"
compound=O=C(O)c1ccccc1Nc1ccc(CCCc2ccc([N+](=O)[O-])cc2)cc1 property_measured="melting point" endpoint_value="150 to 153 °C"
compound=O=[N+]([O-])c1cnn(-c2c(Cl)cc(Cl)cc2Cl)c1O property_measured="melting point" endpoint_value="106 to 115 °C"
compound=CNC(=O)N(O)Cc1ccc(Br)cc1 property_measured="melting point" endpoint_value="165 to 167 °C"
compound=COc1cc(NS(=O)(=O)c2ccc(C)cc2)cc(OC)c1 property_measured="melting point" endpoint_value="103 to 104 °C"
compound=N#Cc1ccc(C2=NOC3(CCN(C(=O)CCC(=O)O)CC3)C2)cc1 property_measured="melting point" endpoint_value="167 to 170 °C"
compound=CC(=O)NCCCC(=O)c1ccc(Cl)cc1CCC(=O)NCC(=O)O property_measured="melting point" endpoint_value="88 to 89 °C"

Q) Data request, read-out melting point, for "Oc1ccc2ccccc2c1N=Nc1ccc2[nH]nnc2c1"
A) 250 °C

Q) Data request, read-out melting point, for COc1cc(C(C#Cc2cnc(N)nc2N)OC)cc(OC)c1OC (stereo not given)
A) 184 to 186 °C
